EXPERIMENTAL_DETAILS: NCI Yeast Anticancer Drug Screen. Data for the cln2 rad14 strain (AID 165);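 also: 0% = growth equal to vehicle treated cultures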
CONDITION_DESCRIPTION: S. cerevisiae cln2 rad14 strain, at 5.0 µM (retest, dose inferred, filed as 0.5), hits give high values
Compounds without any hit were thinned out: in the full panel of roughly 79,000, 15% have a hit.
TEST_READOUT: growth inhibition (%)
Give the value in % but do not write % after it.

O=C(Nc1cccc(C(F)(F)F)c1)Oc1ccc(Cl)cc1C(=O)c1ccccc1	31
CCOC(=O)c1csc(Br)n1	-8
COc1cc(N(C)C)ccc1/C=C\c1ccnc2ccccc12	-17
CCOC(=O)Nc1ccc2c(c1)Cc1ccccc1-2	-8
Nc1ccc(S(=O)(=O)Nc2ccc(Nc3c4ccccc4nc4ccccc34)cc2)cc1	-3

Lab note: CCCCC(=O)c1c(O)nc2sccn2c1=O gave growth inhibition of 22

Lab note: O=Cc1coc2ccccc2c1=O gave growth inhibition of 6

Lab note: Nc1ccc(CCl)cc1Cc1c(O)ccc2ccccc12 gave growth inhibition of 6

Lab note: O=c1ccc(N=Nc2ccccc2)ccc1O gave growth inhibition of -3
